procedure-details: yeast display, Sf9 membrane polyspecificity reagent, FACS + sequencing; frameworks hold sequencing errors
endpoint-label: polyreactivity (PSR sort gate)

Reference set (10 entries):
QVQLVESGGGLVQAGGSLRLSCAASGSIFLVYAMGWYRQAPGKERELVAVITKSGGSTYYADSVKGRFTISRDNAKNTVYLQMNSLKPEDTAVYYCAARRRGARHDYWGQGTQVTVSS	high polyreactivity
QVQLVESGGGLVQAGGSLRLSCAASGITFYWYTMGWYRQAPGKERELVADIDGDGGSTYYAVSVKGRFTISRDNAKNTVYLLMNSVKPEDTGVYFCAAQVWPWGYDYWGQGTQVTVSS	high polyreactivity
QVQLVESGGGLVQAGGSLRLSCAASGIIFWYNAMGWYRQAPGKERELVAAITYSGGSTYYADSVKGRFTISRDNAKNTVYLQMNSLKPEDTAVYYCAADGYSRYASGGYEYWGQGTQVTVSS	low polyreactivity
QVQLVESGGGLVQAGGSLRLSCAASGSIFVHYAMGWYRQAPGKERELVARISWRGNTYYADSVKGRFTISRDNAKNTVYLQMNSLKPEDTAVYYCATGQSVIYRYEYWGQGTQVTVSS	low polyreactivity
QDQLVESVGCLVQAGGSLRLSCAATGRIFQSYAMGWYRQAPGKERELVAGIRAGGGRTYYADSVKGRFTISRDIAKNTVYVQMNSLKPEDTAVDYCAARFVGSFYAPFDYWGQGTLVTVSS	low polyreactivity
QVQLVESGGGLVQAGGSLSLICAASRLTFYLYAMGWYRQAPGKERELLAAISYSGGSTYYADSVKGRFTISRDNAKNTVYLQMNSLKPEDTAVYYCNALRAGTDSRRTYGSTYGYWGQGTQVTVSS	high polyreactivity
QVQRVESGGGLVQAGGSLRLSCAASGRTFAPYAMGWSRQAPGKARELVAGITYGGSRTYYADSVKGRFTISRDNAKNTVYLQMNSLKPEDPAVYYCNARSYPYQIRYVTYGAGYYYWGQGTQVTVSS	high polyreactivity
QVQLVESGGGLVQAGGSLRLSCAASGYIFLGYDMVWYRQAPGKERELVAVINWSGGRTRYADSVKGRFTISRDNAKNTVYLQMNSLKPEDTAVYYCAAERSITYDYWGQGSQVTVSS	high polyreactivity
QVQLVESGGGLVQAGGSLRLSCAASGFTFSYYAMGWYRQAPGKERELVAAISWSGGRTYYADSVKGRFTISRDNAKNTVYLQMNSLKPEDTAVYYCAVVYYGSIFVLEYDYWGQGTQVTVSS	high polyreactivity
QVQLVESGGGLVQAGGSLRLSCAGSGSIFSNNAMGWYRQAPGKERELVAAISASGGSTYYADSVKGRFTISRDNAKNTVYLQMNSLKPEDTAVYYCAARGYGWGQGTQVTVSS	high polyreactivity

Could you now look at the following sequence, please?
Indicate its recorded polyreactivity (PSR sort gate); the sequence in question is QVQHVESGGGLVQAGGSLRLSSAASGFTFYGYAMGWYRPARGNERELVATIRRSTGSTYYADSVKGRFTISRDNAKYSVYLQMNSLKPDDTAVYYCATRVWFPITSYDYWGQGTQVTVSS
low polyreactivity

====

procedure-details: yeast display, Sf9 membrane polyspecificity reagent, FACS + sequencing; frameworks hold sequencing errors
endpoint-label: polyreactivity (PSR sort gate)

Reference set (5 entries):
QVQLVESGGGLVQAGGSLRLSCAASGSTFYLYAMGWYRQAPGKERELVATITNGGGTNYADSVKGRFTISRDNAKNTVYLQMNSLKAEDTAVYYCAAKWYHRDGDYWGQGTQVTVSS	low polyreactivity
QVQLVESGGGLVQAGGSLRLSCAASGSIFVYYAMGWYRQAPGKERELVARITRGGRTYYADSVKGRFTISRDNAKNTVYLQMNSLKPEDTAVYYCAADYRVQLRKEYDYWGQGTQVTVSS	high polyreactivity
QVQLLESGGGLVQAGGSLRLSCAASGIIFCEYAMGWYTQAPGKERELVATITSGDSTNYADSVKGRFTISRDNAKNTVYLQMNSLKPEDTAVYYCIADYAFLPSYDYWGQGTQVTVSS	low polyreactivity
QVQLVESGGGLVQAGGSLRLSCAASGRIFPYNAMGWYRPAPGKEREFVAAITWSGGSTYYADSVKGRFTISRDNAKNTVYLQMNCLKPEDTAVYYCAIRYPWQYNYWGQGTQVTVSS	high polyreactivity
QVQLVESGGGLVQAGGSLRLSCAASGSIFRYYTMGWYRQAPGKERELVAAISSRGGSTYYADSVKGRFTISRDNAKNTVYLQMNSLKPEDTAVYYCNVLVKRAYQYTYGVDYWGQGTQVTVSS	high polyreactivity

Indicate its recorded polyreactivity (PSR sort gate); the sequence in question is QVQLVESGGGIVQAGGSLRLSCAASGRTFVSYAKGWYRQAPGKERELVAAISSSGGRTYYADSVKGRFTISRDNAKNTVYLQMNSLKPEDTAVYYCNAVRFISARYDYWGQGTQVTVSS
high polyreactivity

Indicate its recorded polyreactivity (PSR sort gate); the sequence in question is QVQLVESGGGLVQAGGSLRLSCAASGSTFWPYTMGWYRQAPGKERELVAAISLSGGSTYYADSVKGRFTISRDNAKNTVYLQMNSLKPEDTAVYYCAAEGGYQNWHYLYDYWGQGTQVTVSS
low polyreactivity

Indicate its recorded polyreactivity (PSR sort gate); the sequence in question is QVQLVESGGGLVHAGGSLRLSCAASGFIFWDYAMGWYRQAPGKERELVAAISDSGGDTYYADSVKGRFTISRDNAKNTVNLQMNRLKPEDTAVYYCAAYSPSSRFDRRGYWGQGNQVTVSS
low polyreactivity

Indicate its recorded polyreactivity (PSR sort gate); the sequence in question is QVQLVESGGGLVQAGGSLRLSCAASGSIFYQNALGWYRQAPGKETELVAAMSRSGGSTYYADSVKGRFTISRDNAKNTVYLQMNSLKPEDTAVYYCAARISRQRSYSRDYWGQGTQVTVSS
high polyreactivity

Indicate its recorded polyreactivity (PSR sort gate); the sequence in question is QVQLVESGGGLVQAGGSLRLSCAASGFIFQGNAKGWYRQAPGKERELVAAITRGGGRTYYADSVKGRFTISRDNSKNTVYLQMNSLKPEDSAVNYCNAVGRSKYDYWGQGTQVTVSW
high polyreactivity

Indicate its recorded polyreactivity (PSR sort gate); the sequence in question is QVQLVESGGGLVQAGGSLRLSCAASGSSIYVYVMGWYRQAPGKERELVAVIDWRGGSTYYADSVKGRFTISRDNAKNTVYLQMNSLKPEDSSVYYCNKVAQFYYKLPYYKERDWGQGTQVTVSS
low polyreactivity

Measured values drawn from the nanobody polyreactivity screen of Harvey et al. (2022) for this set.
